// reported composite z-score per item
method.summary: small molecules captured by biotinylated probe aFST – biochemical, small-molecule microarray, fluorescence 635/667, stem cell growth factor project, primary screen (AID 1086);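 further: score merges 667 nm fluorescence with signal-to-noise of each printed compound spot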
reported.conditions: higher = more signal

C[N+](C)(C)CCCC[C@@H]1NC(=O)[C@@H]2C[C@H](C(=O)NCCCCCN)[C@H](c3ccc(O)cc3)N2C1=O :: 1.19
CC#CC(=O)Oc1ccc(Br)cc1C=CC(=O)OCC :: 0.375
CC1CC/C=C\[C@H]2OC34C=CCN(Cn5nnc6ccccc65)C(=O)[C@H]3N(CCCCCO)C(=O)[C@@H]4C2C(=O)O1 (stereo partly specified) :: -0.815
C=CC[C@]1(C(N)=O)COC(c2ccc(OCCCO)cc2)=N1 :: 0.418
COc1cc2c(cc1OC)CN(C(=O)[C@H]1[C@@H]3C(=O)O[C@@H](c4ccccc4)[C@@H](c4ccccc4)N3[C@@H](c3ccccc3OCCO)[C@]13C(=O)Nc1ccc(C#CCCO)cc13)CC2 :: 0.369
COc1ccc(-c2cc3c(c(Cc4ccccc4)n2)[Si](C(C)C)(C(C)C)OC3)cn1 :: 0.29
CCCCCCc1nc(-c2ccc(-c3ccc(Cl)c(Cl)c3)o2)cc2c1[Si](C(C)C)(C(C)C)O[C@H]2c1ccccc1 :: -0.265
CC(C)=CCCC(C)=CC(O)C1C=CC2C(=O)N(c3ccccc3)C(=O)C2N1Nc1ccc(C(C)C)cc1 (stereo unspecified) :: 1.07

Prompt: composite z-score lookup needed for `NC(=O)[C@@H]1[C@H]2C(=O)O[C@H](c3ccccc3)[C@H](c3ccccc3)N2[C@H](c2ccc(O)cc2)[C@@]12C(=O)Nc1ccc(C#CC3=CCCCC3)cc12` , thanks.
Response: -0.21

Prompt: composite z-score lookup needed for `C#CCN1[C@H](/C=C/C2CC2)[C@H](Cc2ccccc2)OC(=O)[C@@H]1Cc1ccccc1` , thanks.
Response: -0.0168

Prompt: composite z-score lookup needed for `COC(=O)[C@]1(Cc2ccccc2)N=C(c2ccc(OCCCO)cc2)O[C@@H]1c1ccccc1N=[N+]=[N-]` , thanks.
Response: 0.551

Prompt: composite z-score lookup needed for CCCCN1CC=CC23O[C@@H]4C=CCCOC(=O)C4[C@H]2C(=O)N(CCCCCO)[C@@H]3C1=O (stereo partly specified) , thanks.
Response: -0.79
